What pKi was measured for each of the following?
SYSTEM_TESTED: Dimer of Gag-Pol polyprotein [491-589,Q496K] (Human immunodeficiency virus 1, UniProt P03369, Q496K)
Construct: 491-589
PROTOCOL: Enzyme Inhibition Assay
Answers are plain numbers, as −log10 of the molar value.

TEST_SMILES | pKi
COc1cccc(S(=O)(=O)N(C[C@H]2CCCO2)C[C@@H](O)[C@H](Cc2ccccc2)NC(=O)[C@@H]2CN(c3ccccc3)C(=O)O2)c1 | 7.38

Please examine the following record next.
Tell me the measured pKi of COc1cccc(S(=O)(=O)N(C[C@H]2CCCO2)C[C@@H](O)[C@H](Cc2ccccc2)NC(=O)[C@@H]2CN(c3cccc(F)c3)C(=O)O2)c1 , please.
6.82
